All values here come from ChEMBL document CHEMBL2429723.

# ASSAY TARGET: 72 kDa type IV collagenase (Homo sapiens)
# Sequence (P08253 whole entry): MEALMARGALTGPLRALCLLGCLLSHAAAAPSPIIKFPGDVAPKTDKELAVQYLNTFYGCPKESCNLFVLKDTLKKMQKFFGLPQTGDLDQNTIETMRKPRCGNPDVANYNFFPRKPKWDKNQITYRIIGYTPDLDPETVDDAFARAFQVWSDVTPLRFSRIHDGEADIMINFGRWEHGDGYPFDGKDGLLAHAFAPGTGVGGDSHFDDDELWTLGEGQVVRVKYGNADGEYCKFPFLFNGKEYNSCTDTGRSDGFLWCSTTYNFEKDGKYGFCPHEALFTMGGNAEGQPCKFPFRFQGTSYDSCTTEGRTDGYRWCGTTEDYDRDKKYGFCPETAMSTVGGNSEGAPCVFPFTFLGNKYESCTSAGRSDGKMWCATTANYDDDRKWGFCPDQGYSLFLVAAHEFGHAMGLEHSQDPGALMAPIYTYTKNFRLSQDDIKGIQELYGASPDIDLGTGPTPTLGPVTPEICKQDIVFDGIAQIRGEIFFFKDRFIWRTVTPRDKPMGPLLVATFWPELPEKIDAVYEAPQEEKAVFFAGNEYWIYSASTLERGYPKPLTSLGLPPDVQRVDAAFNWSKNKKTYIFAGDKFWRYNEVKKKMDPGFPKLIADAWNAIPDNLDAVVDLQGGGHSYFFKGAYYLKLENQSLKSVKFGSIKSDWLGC
# MEASUREMENT NOTES: Inhibition of human recombinant MMP2 using Mca-Lys-Pro-Leu-Gly-Leu-Dpa-Ala-Arg-NH2 as substrate by fluorescence plate reader analysis
pIC50: −log10 of the molar value.
OBSERVABLE: pIC50

Worked cases, pIC50 given:
O=C(NO)C1(S(=O)(=O)c2ccc(Oc3ccc(OC(F)(F)F)cc3)cc2)CCN(C2CC2)CC1 :: > 9.00
Nc1nc(C(=O)N2CCC(C(=O)NO)(S(=O)(=O)c3ccc(Oc4ccc(OC(F)(F)F)cc4)cc3)CC2)c(N)nc1C(=O)N1CCCC1 :: > 9.00

Next:
-- ask I am curious: what pIC50 value has been reported for `N[C@@H](CCCCNC(=O)c1ccc2c(c1)C(=O)OC21c2ccc(O)cc2Oc2cc(O)ccc21)C(=O)N1CCC(C(=O)NO)(S(=O)(=O)c2ccc(Oc3ccc(OC(F)(F)F)cc3)cc2)CC1` ?
-- reply > 9.00
